Examples of molecules with documented Wheat plant response rating follow.
tested on: wheat; test: Test B pre/postemergence wheat; type: in vivo, Triticum aestivum; conditions: Rate 62 g/ha, Postemergence; scale 0 to 10 (0 no effect, 10 complete control)
# respond with the number and nothing more

As a guide, the following entries are already answered.
{"columns": ["molecule", "Wheat plant response rating"],
 "data": [
  ["CC(C)C(=O)Cn1c(=O)on(C(=O)N(c2ccccc2)C(C)C)c1=O", 0],
  ["CC(C)N(C(=O)n1oc(=O)n(C2CCCC2)c1=O)c1ccccc1", 0],
  ["CC(C)N(C(=O)n1oc(=O)n(CC2=NCCO2)c1=O)c1ccccc1", 0],
  ["Cc1ccccc1-n1c(=O)on(C(=O)N(c2ccc3c(c2)CCC3)C(C)C)c1=O", 0]
]}

Supply recorded Wheat plant response rating for `CC(C)N(C(=O)n1oc(=O)n(CC(=O)N(C)C)c1=O)c1ccc(F)cc1F` here.
0

State, in one line, measured Wheat plant response rating of Cc1ccccc1-n1c(=O)on(C(=O)N(c2ccc(Cl)cc2)C(C)C2CC2)c1=O (stereo not shown)
0

Write down Wheat plant response rating measured for item `CCN(C(=O)n1oc(=O)n(Cc2ccco2)c1=O)C1CCCCC1`
0
